assay: logP determination by HPLC (EEC Directive 79/831 Annex V. A8); conditions: HPLC, gradient method, acetonitrile/0.1% aqueous phosphoric acid
This listing pairs compounds with measured log.P.
endpoint-label: log.P

[[record]]
compound = "CC(C)C(C)Nc1c(-c2ccc(F)cc2F)c(Cl)nc2nc(Cl)nn12 (centres unmarked)"
number = 3.96

[[record]]
compound = "CNc1c(-c2c(F)cc(F)cc2F)c(Cl)nc2nc(Cl)nn12"
number = 2.67

[[record]]
compound = "OCCNc1c(-c2c(F)cc(F)cc2F)c(Cl)nc2nc(Cl)nn12"
number = 2.23

[[record]]
compound = "CCCNc1c(-c2c(F)cc(F)cc2F)c(Cl)nc2nc(Cl)nn12"
number = 3.37

[[record]]
compound = "C=C(C)CNc1c(-c2c(F)cc(F)cc2F)c(Cl)nc2nc(Cl)nn12"
number = 3.37


----------
Form field: log.P (one value per entry).
assay: logP determination by HPLC (EEC Directive 79/831 Annex V. A8); settings: HPLC, gradient method, acetonitrile/0.1% aqueous phosphoric acid
endpoint-label: log.P

[[record]]
molecule = "CC(C)(C)Nc1c(-c2ccccc2Cl)c(Cl)nc2nc(Cl)nn12 [Example 22]"
number = 3.99

[[record]]
molecule = "CCOC(=O)CN(CC)c1c(-c2ccc(F)cc2F)c(Cl)nc2nc(Cl)nn12 [Example 123]"
number = 3.61

[[record]]
molecule = "CC1=CCCN(c2c(-c3c(F)cc(F)cc3F)c(Cl)nc3nc(Cl)nn23)C1 [Example 87]"
number = 4.21

[[record]]
molecule = "CC(C)C(C)Nc1c(-c2c(F)cc(F)cc2F)c(Cl)nc2nc(Cl)nn12 (stereo not drawn) [Example 171]"
number = 4.01

[[record]]
molecule = "CC(C)C(C)Nc1c(-c2ccccc2Cl)c(Cl)nc2nc(Br)nn12 (stereo not drawn) [Example 170]"
number = 4.18

[[record]]
molecule = "CCN(CC)c1c(-c2ccccc2Cl)c(Cl)nc2nc(Cl)nn12 [Example 31]"
number = 3.99

[[record]]
molecule = "Fc1cc(F)c(-c2c(Cl)nc3nc(Br)nn3c2N2CCOCC2)c(F)c1 [Example 49]"
number = 3.03

[[record]]
molecule = "CC(C)Nc1c(-c2c(F)cccc2Cl)c(Cl)nc2nc(Cl)nn12 [Example 94]"
number = 3.42

[[record]]
molecule = "CCN(CCN(C)C)c1c(-c2ccc(F)cc2F)c(Cl)nc2nc(Cl)nn12 [Example 117]"
number = 1.65

[[record]]
molecule = "COCCNc1c(-c2c(F)cc(F)cc2F)c(Cl)nc2nc(Cl)nn12 [Example 12]"
number = 2.91

[[record]]
molecule = "Clc1nc2nc(Cl)c(-c3ccccc3Cl)c(N3CCCC3)n2n1 [Example 30]"
number = 3.59

[[record]]
molecule = "CC(C)Nc1c(-c2c(F)cc(F)cc2F)c(Cl)nc2nc(Cl)nn12 [Example 47]"
number = 3.36

[[record]]
molecule = "CC1CCCCN1c1c(-c2c(F)cc(F)cc2F)c(Cl)nc2nc(Cl)nn12 (stereo not drawn) [Example 85]"
number = 4.33

[[record]]
molecule = "CCCCN(CC)c1c(-c2ccc(F)cc2F)c(Cl)nc2nc(Cl)nn12 [Example 124]"
number = 4.5

[[record]]
molecule = "CN(C)Nc1c(-c2ccccc2Cl)c(Cl)nc2nc(Cl)nn12 [Example 40]"
number = 3.18

[[record]]
molecule = "Fc1cc(F)c(-c2c(Cl)nc3nc(Cl)nn3c2N2CCC(F)CC2)c(F)c1 [Example 83]"
number = 3.55

[[record]]
molecule = "Fc1cccc(Cl)c1-c1c(Cl)nc2nc(Cl)nn2c1N1CCOCC1 [Example 132]"
number = 3.02

[[record]]
molecule = "CCN(CC1CCCO1)c1c(-c2ccc(F)cc2F)c(Cl)nc2nc(Cl)nn12 (stereo not drawn) [Example 121]"
number = 3.87


----------
assay: logP determination by HPLC (EEC Directive 79/831 Annex V. A8)
endpoint-label: chromatographic logP

[[record]]
smiles_code = "Nc1nnc(Br)[nH]1"
number = 0.37


----------
system: Venturia inaequalis; assay: Venturia test (apple)/protective; format: in vivo; settings: Venturia inaequalis, 240 h, protective, application rate 100 g/ha, evaluation 10 days after inoculation, read-out: Efficacy in %
endpoint-label: pest or weed control at 100 g/ha (%)

[[record]]
compound = "CC(C)Nc1c(-c2ccccc2Cl)c(Cl)nc2nc(Br)nn12 [drawing 52]"
endpoint_label = "pest or weed control at 100 g/ha"
number = 98

[[record]]
compound = "C=CCN(CC)c1c(-c2c(F)cccc2Cl)c(Cl)nc2nc(Cl)nn12 [drawing 62]"
endpoint_label = "pest or weed control at 100 g/ha"
number = 96

[[record]]
compound = "C[C@@H](Nc1c(-c2ccccc2Cl)c(Cl)nc2nc(Cl)nn12)C(F)(F)F [drawing 50]"
endpoint_label = "pest or weed control at 100 g/ha"
number = 100

[[record]]
compound = "CC1CCCN(c2c(-c3c(F)cc(F)cc3F)c(Cl)nc3nc(Cl)nn23)C1 (stereo not drawn) [drawing 57]"
endpoint_label = "pest or weed control at 100 g/ha"
number = 96

[[record]]
compound = "COCCN(C)c1c(-c2c(F)cccc2Cl)c(Cl)nc2nc(Cl)nn12 [drawing 65]"
endpoint_label = "pest or weed control at 100 g/ha"
number = 96

[[record]]
compound = "Fc1cccc(Cl)c1-c1c(Cl)nc2nc(Cl)nn2c1NCC1CC1 [drawing 64]"
endpoint_label = "pest or weed control at 100 g/ha"
number = 99

[[record]]
compound = "Clc1nc2nc(Cl)c(-c3ccccc3Cl)c(NCC3CC3)n2n1 [drawing 55]"
endpoint_label = "pest or weed control at 100 g/ha"
number = 96

[[record]]
compound = "C[C@@H](Nc1c(-c2c(F)cc(F)cc2F)c(Cl)nc2nc(Cl)nn12)C(F)(F)F [drawing 51]"
endpoint_label = "pest or weed control at 100 g/ha"
number = 100

[[record]]
compound = "Fc1cccc(Cl)c1-c1c(Cl)nc2nc(Cl)nn2c1N1CCCC1 [drawing 61]"
endpoint_label = "pest or weed control at 100 g/ha"
number = 85


----------
Documented chromatographic logP across a set of compounds
experiment: physchem
endpoint-label: chromatographic logP

[[record]]
smiles_code = "Clc1ccccc1-c1c(Cl)nc2nc(Br)nn2c1Cl"
number = 3.39

[[record]]
smiles_code = "Fc1cc(F)c(-c2c(Cl)nc3nc(Br)nn3c2Cl)c(F)c1"
number = 3.27

[[record]]
smiles_code = "Clc1nc2nc(Cl)c(-c3ccccc3Cl)c(Cl)n2n1"
number = 3.37

[[record]]
smiles_code = "Fc1cc(F)c(-c2c(Cl)nc3nc(Cl)nn3c2Cl)c(F)c1"
number = 3.28

[[record]]
smiles_code = "CC(C)Nc1c(-c2ccccc2Cl)c(Cl)nc2nc(Cl)nn12"
number = 3.43


----------
experiment: logP determination by HPLC (EEC Directive 79/831 Annex V. A8); details: HPLC, gradient method, acetonitrile/0.1% aqueous phosphoric acid
endpoint-label: log.P

[[record]]
molecule = "CCN(CC)c1c(-c2ccc(F)cc2F)c(Cl)nc2nc(Cl)nn12 [Example 125]"
number = 3.74

[[record]]
molecule = "CCCN(CC1CC1)c1c(-c2ccc(F)cc2F)c(Cl)nc2nc(Cl)nn12 [Example 126]"
number = 4.48

[[record]]
molecule = "CCCNc1c(-c2ccccc2Cl)c(Cl)nc2nc(Cl)nn12 [Example 33]"
number = 3.46

[[record]]
molecule = "CCN(CCOC)c1c(-c2c(F)cc(F)cc2F)c(Cl)nc2nc(Cl)nn12 [Example 77]"
number = 3.61

[[record]]
molecule = "CC(C)(Nc1c(-c2c(F)cc(F)cc2F)c(Cl)nc2nc(Cl)nn12)C(F)(F)F [Example 66]"
number = 3.28

[[record]]
molecule = "Fc1cc(F)c(-c2c(Cl)nc3nc(Cl)nn3c2N2CCOCC2)c(F)c1 [Example 5]"
number = 2.99

[[record]]
molecule = "CC(C)Nc1c(-c2ccc(F)cc2F)c(Cl)nc2nc(Cl)nn12 [Example 95]"
number = 3.31

[[record]]
molecule = "COCCN(C)c1c(-c2c(F)cccc2Cl)c(Cl)nc2nc(Cl)nn12 [Example 148]"
number = 3.32

[[record]]
molecule = "CCNc1c(-c2ccccc2Cl)c(Cl)nc2nc(Cl)nn12 [Example 29]"
number = 3.07


----------
assay: logP determination by HPLC (EEC Directive 79/831 Annex V. A8); details: HPLC, gradient method, acetonitrile/0.1% aqueous phosphoric acid
Consider the following molecules and their measured log.P readings.
endpoint-label: log.P

[[record]]
molecule = "Fc1cc(F)c(-c2c(Cl)nc3nc(Cl)nn3c2N2CCCCC2)c(F)c1"
number = 4.06

[[record]]
molecule = "CCC(C)CNc1c(-c2c(F)cc(F)cc2F)c(Cl)nc2nc(Br)nn12 (centres unmarked)"
number = 4.05

[[record]]
molecule = "C=CCN(CC)c1c(-c2ccc(F)cc2F)c(Cl)nc2nc(Cl)nn12"
number = 3.95

[[record]]
molecule = "CCN(Cc1ccco1)c1c(-c2ccc(F)cc2F)c(Cl)nc2nc(Cl)nn12"
number = 3.98

[[record]]
molecule = "CCN(CC)c1c(-c2c(F)cc(F)cc2F)c(Cl)nc2nc(Br)nn12"
number = 3.9


Values from patent US20050222173A1
